Numbers sourced from patent US20190064177A1.

- target.of.assay: Diaphorase
- experimental.protocol: peptide array, 1 uM diaphorase, binding without FAD / with FAD
readout.type: noFAD/FAD

What does the record list as noFAD/FAD for PRYQNFGGGSG ?
2.81

Another binder to look at: VVQALFDGSG
0.637

Another binder to look at: YRFQSGLPAKDGSG
2.71

Another binder to look at: NVSDLSQFYLSGSG
0.624

Another binder to look at: RWYKNGGSG
2.78

Another binder to look at: EAVQKLLFSGSG
0.602

Another binder to look at: RLQYLFKSDGSG
2.94
